// provenance: ChEMBL document CHEMBL5291721

experimental system: Neuronal acetylcholine receptor subunit alpha-4 (Homo sapiens, UniProt P43681); further: assay procedure not described here
Sequence (P43681 whole entry): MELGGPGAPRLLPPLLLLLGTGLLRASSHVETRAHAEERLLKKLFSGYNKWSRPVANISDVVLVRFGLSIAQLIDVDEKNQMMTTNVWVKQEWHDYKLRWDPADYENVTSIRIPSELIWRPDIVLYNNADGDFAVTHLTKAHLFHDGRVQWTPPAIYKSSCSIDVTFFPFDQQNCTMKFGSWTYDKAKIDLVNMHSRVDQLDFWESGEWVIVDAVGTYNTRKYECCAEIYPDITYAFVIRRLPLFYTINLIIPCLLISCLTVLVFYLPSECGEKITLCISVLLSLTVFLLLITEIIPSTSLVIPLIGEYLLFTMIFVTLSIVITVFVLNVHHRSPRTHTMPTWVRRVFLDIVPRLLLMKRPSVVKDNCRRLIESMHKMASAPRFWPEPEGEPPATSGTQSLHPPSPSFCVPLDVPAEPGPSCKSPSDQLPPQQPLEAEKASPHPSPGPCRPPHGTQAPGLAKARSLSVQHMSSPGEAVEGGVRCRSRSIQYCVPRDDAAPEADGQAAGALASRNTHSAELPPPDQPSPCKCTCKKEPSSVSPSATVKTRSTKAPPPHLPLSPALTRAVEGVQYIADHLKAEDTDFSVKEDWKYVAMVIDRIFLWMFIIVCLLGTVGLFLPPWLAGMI
# reported AC50; entries follow

The cases that follow already have their AC50 on record.
Per the records, this compound ( Cc1ccc(=O)n(-c2ccccc2)c1 [PIRFENIDONE] ) has AC50 equal to > 30 µM

Note to self: AC50 recorded for CC(C)CC(N(C)C)C1(c2ccc(Cl)cc2)CCC1 (stereo not drawn) [SIBUTRAMINE] was > 10 µM

Just so you know, measured AC50 for C=CC(N)CCC(=O)O (stereo not drawn) [VIGABATRIN] came out at > 10 µM

Lab note: O=C(O)c1ccccc1OP(=O)(O)O [FOSFOSAL] gave AC50 of > 30 µM

compound C[C@H]1Oc2cc(cnc2N)-c2c(nn(C)c2C#N)CN(C)C(=O)c2ccc(F)cc21 [LORLATINIB] , AC50 observed: > 30 µM

Continuing:
The recorded AC50 for Nc1nc(F)nc2c1ncn2[C@@H]1O[C@H](COP(=O)(O)O)[C@@H](O)[C@@H]1O [FLUDARABINE PHOSPHATE] is > 30 µM

Lookup result for [H]/N=C(/N)N[C@H]1[C@H](O)[C@@H](O)[C@H](O[C@@H]2O[C@@H](C)[C@](O)(C=O)[C@H]2O[C@@H]2O[C@@H](CO)[C@H](O)[C@@H](O)[C@@H]2NC)[C@@H](N/C(N)=N\[H])[C@@H]1O [STREPTOMYCIN] ; measured AC50: > 30 µM

The compound CCCN(CCc1cccs1)[C@H]1CCc2c(O)cccc2C1 [ROTIGOTINE] showed AC50 equal to > 30 µM
